Molecular target: D(1A) dopamine receptor (Sus scrofa) (UniProt P50130)
Sequence (P50130 whole entry): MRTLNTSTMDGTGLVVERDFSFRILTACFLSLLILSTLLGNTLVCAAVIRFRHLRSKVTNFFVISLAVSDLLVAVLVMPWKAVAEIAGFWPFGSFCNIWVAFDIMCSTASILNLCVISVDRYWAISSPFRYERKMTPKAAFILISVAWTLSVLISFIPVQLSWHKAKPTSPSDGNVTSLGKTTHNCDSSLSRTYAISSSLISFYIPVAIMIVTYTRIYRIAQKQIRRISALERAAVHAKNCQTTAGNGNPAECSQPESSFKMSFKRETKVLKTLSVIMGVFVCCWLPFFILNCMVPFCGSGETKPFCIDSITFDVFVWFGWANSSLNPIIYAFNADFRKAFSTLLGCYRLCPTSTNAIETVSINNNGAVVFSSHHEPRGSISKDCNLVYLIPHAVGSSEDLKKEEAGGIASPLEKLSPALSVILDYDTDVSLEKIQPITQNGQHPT
Assay: Displacement of [3H]SCH23390 from pig dopamine D1 receptor
Activity calls are given as the source filed them. The calls are words filed in the database; no cut-off is given here.
METRIC_NAME: Activity

Name the recorded Activity of the item COc1ccc(-n2cc(C(=O)NCCN3CCN(c4cccc(Cl)c4Cl)CC3)nn2)cc1 in your answer. inactive

Name the recorded Activity of the item COc1ccc(-n2cc(CCCC(=O)NCCCCN3CCN(c4cccc(Cl)c4Cl)CC3)nn2)cc1 in your answer. inactive

Name the recorded Activity of the item COc1ccc(-n2cc(C(=O)NCCCCN3CCN(c4ccccc4Cl)CC3)nn2)cc1 in your answer. inactive

The reported measurements were obtained from ChEMBL document CHEMBL1154112.
